Recorded measurements of pIC50, one per entry
System: murine CT26 colon cancer cells
Experiment Summary: MTT cytotoxicity assay in CT26 cells
Type: cell-based
Condition Description: 48 h incubation, with 5 equiv AA; read-out: CT26 IC50 values +AA, mean ± SD
Lab note — pIC50 values are minus log10 of concentrations in M.

Solved cases below.
* Cn1cc(CC([NH3+])C(=O)[O][Pt]23([O]C(=O)NCCCCCN4C(=O)CCC4=O)([NH]C4CCCCC4[NH]2)[O]C(=O)C(=O)[O]3)c2ccccc21.O=C([O-])C(F)(F)F (stereo not drawn) [SucCa/IdoEs] | 4.97
* O=C1[O][Pt]2([NH][C@@H]3CCCC[C@H]3[NH]2)[O]C1=O [oxaliplatin, reference compound] | 5.82

Please turn your attention to the following entry.
input: Requested read-out: pIC50. Entry: CC(=O)[O][Pt]1([O]C(C)=O)[O]C(=O)C(=O)[O]1.N[C@@H]1CCCC[C@H]1N [OAc/OAc, reference compound]
output: 4.65
